# maps each entry to its GI50
System: OVCAR-8
Protocol: NCI tumour cell line growth inhibition, 48 h
Activity calls are given as the source filed them. Rule as the data show it: active = GI50 up to about 1.1 µM and inactive = higher.
Quantity: GI50

{"columns": ["Compound", "Reading"],
 "data": [
  ["COc1ccc(-c2nc3c(nc2-c2ccc(OC)cc2)C(N)=NS(=O)(=O)N3)cc1", "> 100 µM (inactive)"],
  ["Nc1ccc2nc3n(c(=O)c2c1)CCCCC3", "> 100 µM (inactive)"],
  ["CNc1nc(=O)c(C#N)c(-c2ccc(C)cc2)s1", "> 100 µM (inactive)"],
  ["O=C(c1ccccc1)N1C2C3CC(OCc4ccccc4)(OCc4ccccc4)C(O3)C21 (stereo not given)", "> 100 µM (inactive)"],
  ["N#CC(C#N)=C(N)/C(C#N)=C/c1cc(O)c(O)c(Br)c1", "48.1 µM (inactive)"],
  ["C=CN1C(=O)[C@H](Oc2ccccc2)[C@@H]1c1ccccc1", "23.8 µM (inactive)"],
  ["CCOC(=O)C1=C(c2ccccc2)NC(c2ccccc2)=C(C(=O)OCC)c2c1c(=O)cc[nH]c2=O", "> 100 µM (inactive)"],
  ["CC(C)(S)C(N)C(=O)O (stereo not given)", "> 100 µM (inactive)"],
  ["Cc1ccc(S(=O)(=O)NC(=O)NC2=NC(C)(C)N(c3ccc(Cl)c(Cl)c3)C(N)=N2)cc1", "9.89 µM (inactive)"],
  ["CCCCCCC(O)C/C=C/CCCCCC/C(C(=O)OC)=C(/O)C(=O)OCC (stereo not given)", "> 100 µM (inactive)"]
]}

---

Test system: U-251
Protocol: NCI tumour cell line growth inhibition, 48 h
Activity calls are given as the source filed them. Cut-off read from the data, not from the text of the source: active = GI50 up to about 1.1 µM and inactive = higher.

{"columns": ["Molecule", "GI50"],
 "data": [
  ["C=C(Cl)C(Cl)(CBr)CCC(Br)C(C)(C)Br (stereo unspecified)", "1.77 µM (inactive)"],
  ["N/N=C(/CC(O)(C(F)(F)F)C(F)(F)F)c1ccccc1", "> 10 µM (inactive)"],
  ["COC1(OC)C(/C(N)=C\\O)=NC(C)(C)N1O", "> 100 µM (inactive)"],
  ["O=c1[nH]ncc2[nH]c3c4ccccc4ccc3c12", "24.8 µM (inactive)"],
  ["CCCC(CCC(=O)O)(CCC(=O)O)[N+](=O)[O-]", "> 100 µM (inactive)"],
  ["BrCC[P+](c1ccccc1)(c1ccccc1)c1ccccc1", "3.87 µM (inactive)"],
  ["Cc1ccsc1/C=N/Nc1ncccn1", "> 100 µM (inactive)"],
  ["COc1ccc(C(NCCNC(c2ccc(OC)c(OC)c2)c2cc3c(cc2O)OCO3)c2cc3c(cc2O)OCO3)cc1OC (stereo unspecified)", "2.87 µM (inactive)"],
  ["Cc1ccc(S(=O)(=O)N(CC(O)COc2ccccc2)c2c(F)c(F)cc(F)c2F)cc1 (stereo unspecified)", "21 µM (inactive)"],
  ["O=[N+]([O-])c1ccc(-n2nnc(C3=NCCCN3)c2-c2ccc(Cl)cc2)cc1", "> 100 µM (inactive)"],
  ["O=C1Nc2ccccc2C12CCNC2Cc1ccccc1 (stereo unspecified)", "> 100 µM (inactive)"]
]}

---

Tested on: NCI-H460
Protocol: NCI tumour cell line growth inhibition, 48 h
The source made the active and inactive calls. Rule as the data show it: active = GI50 up to about 1.1 µM and inactive = higher.

{"columns": ["Molecule", "GI50"],
 "data": [
  ["O=C(c1ccccc1)N1C(=S)NC(=N/c2ccccc2)/C1=N\\c1ccccc1", "> 100 µM (inactive)"],
  ["COc1ccc(/C(=N\\NC(=N)N)C(c2ccc(OC)cc2)C2OC(=O)c3ccccc32)cc1 (stereo not given)", "> 100 µM (inactive)"],
  ["CC(=O)CNC(=O)OC(C)(C)C", "> 100 µM (inactive)"],
  ["O=C1c2ccccc2C(=O)c2nc(-c3ccccc3)c(-c3ccccc3)nc21", "5.83 µM (inactive)"],
  ["COc1ccc2c(c1)CC[C@@H]1C2CC[C@]2(C)C(=O)N(CCN3CCCCC3)C(=O)CC12 (stereo not given in full)", "> 100 µM (inactive)"],
  ["c1ccc2cc3c(cc2c1)OP1(Oc2cccc4cccnc24)(O3)Oc2cc3ccccc3cc2O1", "2.52 µM (inactive)"],
  ["[N-]=[N+]=C1C(=O)c2ccccc2-c2ccccc21", "32.1 µM (inactive)"],
  ["CC(=O)c1ccc(NC(=O)C(=O)C(C(=O)/C=C/c2ccccc2)C2OC(=O)c3ccccc32)cc1 (stereo not given)", "> 100 µM (inactive)"],
  ["C=CCOC(OCC=C)/C(Br)=C/C", "67.3 µM (inactive)"],
  ["C/C(CC(=O)Nc1cccc(Cl)c1C)=N\\NC(=O)c1ccncc1", "> 100 µM (inactive)"]
]}

---

System: KM-20L2
Protocol: NCI tumour cell line growth inhibition, 48 h
The source made the active and inactive calls. Cut-off read from the data, not from the text of the source: active = GI50 up to about 1.1 µM and inactive = higher.
# maps each entry to its GI50

{"columns": ["Molecule", "GI50"],
 "data": [
  ["O=C(c1ccccc1)N1C2C3CC(OCc4ccccc4)(OCc4ccccc4)C(O3)C21 (stereo not given)", "> 100 µM (inactive)"],
  ["C1OC1CO[C@@H]1CO[C@H]2[C@@H]1OC[C@H]2OCC1CO1 (stereo not given in full)", "> 100 µM (inactive)"],
  ["COC(=O)C(CBr)CBr", "6.76 µM (inactive)"],
  ["Cn1c(=O)c(C(=O)NC(=O)NCCCCCOC(=O)CCCCCCCCCCC(=O)OCCCCCNC(=O)NC(=O)c2cn(Cc3ccccc3)c(=O)n(C)c2=O)cn(Cc2ccccc2)c1=O", "> 100 µM (inactive)"],
  ["O=Cc1ccc2c(c1-c1c(C=O)ccc3c1OCO3)OCO2", "> 100 µM (inactive)"]
]}

---

System: ACHN
Protocol: NCI tumour cell line growth inhibition, 48 h
Calls of active or inactive are those of the source. Rule as the data show it: active = GI50 up to about 1.1 µM and inactive = higher.

{"columns": ["Molecule", "GI50"],
 "data": [
  ["Cc1ccc(OC2CC(n3cnc4c(=O)[nH]c(Br)nc43)OC2Oc2ccc(C)cc2)cc1 (stereo not given)", "19.8 µM (inactive)"],
  ["N#CCCC(C=O)(CCC#N)CCC#N", "> 100 µM (inactive)"],
  ["Cn1cc(NC(=O)c2cc(NC(=O)CCCCCC(=O)Nc3cc(C(=O)Nc4cc(C(=O)NCCC(=N)N)n(C)c4)n(C)c3)cn2C)cc1C(=O)NCCC(=N)N", "> 100 µM (inactive)"],
  ["CC(=O)Nc1ccc(-c2nnc(SCC(=O)Nc3ccccc3C)o2)cc1", "> 100 µM (inactive)"],
  ["COc1ccc(/C=C2/N/C(=N\\N=C/C(O)C(O)C(O)C(O)CO)NC2=O)cc1 (stereo not given)", "> 100 µM (inactive)"],
  ["CC1(C)C(C#N)=[N+]([O-])C(C)(C)N1O", "> 100 µM (inactive)"],
  ["CC(=O)OC12c3ccccc3-c3ccccc3C1C1C(=O)N(C)C(=O)C12Cl (stereo not given)", "> 10 µM (inactive)"],
  ["CN(C)Cc1cc(/N=N/c2ccc(Cl)cc2)cc(CN(C)C)c1O", "6.43 µM (inactive)"],
  ["CC1C(=NO)C(C)C(c2ccccc2)N(N=O)C1c1ccccc1 (stereo not given)", "20.2 µM (inactive)"],
  ["CCC1c2[nH]c3ccccc3c2C[C@H]2C(=O)NC(COC(C)(C)C)C(=O)N12 (stereo not given in full)", "42 µM (inactive)"],
  ["C[N+]1(C)CCC(C#N)(c2ccccc2)CC1", "> 100 µM (inactive)"],
  ["Sc1nn2c(COc3cccc(OCc4nnc5sc(S)nn45)c3)nnc2s1", "> 100 µM (inactive)"],
  ["O=c1c2cc3c(cc2[nH]c2ncccc12)OCO3", "> 10 µM (inactive)"],
  ["CCCCc1ccc(Nc2nc(SC)c3[nH]cnc3n2)cc1", "12.7 µM (inactive)"],
  ["CCN(CC)CCCC(C)Nc1cc(/C=C/c2ccc(Cl)cc2)nc2cc(N(C)C)ccc12 (stereo not given)", "2.11 µM (inactive)"],
  ["CN1CCc2cc(N)cc3c2C1Cc1ccc(O)c(O)c1-3 (stereo not given)", "25.8 µM (inactive)"],
  ["CCOC(=O)[C@@H]1ON2O[C@H](OC3CCCC3(c3ccccc3)c3ccccc3)C[C@H]3OC(=O)[C@@H]1C32 (stereo not given in full)", "65.5 µM (inactive)"],
  ["O=C1OCC(CN2CCC(n3c(=O)[nH]c4ccccc43)CC2)=C1c1ccccc1", "29.4 µM (inactive)"],
  ["CC(C)(C)OC(=O)CCCCCNC(=O)CCCCCNC(=O)CCC(CN(CC(=O)OCc1ccccc1)CC(=O)OCc1ccccc1)N(CC(=O)OCc1ccccc1)CC(=O)OCc1ccccc1 (stereo not given)", "> 100 µM (inactive)"],
  ["CC1(Br)CC2OC3(Br)C=CC(C)(O)C2(CC1=O)C3(C)C (stereo not given)", "> 100 µM (inactive)"]
]}

Values were extracted from ChEMBL document CHEMBL1201862.
